Task for the reader: assign each of the following molecules its reported DR/DR AA.
- assay: Probe fluorescence ratio response to arachidonate:BSA complex, relative to ADIFAB2 (ΔR/ΔRAD2)
- Format: binding
- setup conditions: arachidonate (AA); response relative to ADIFAB2
One number for each entry.

Would you mind listing DR/DR AA for each of the following molecules?
1. 11D1, L72A (protein, UniProt P02693 2-132, looked up, variant N11D L72A, acrylodan label) Fatty acid-binding protein, …: AFDGTWKVDRDENYEKFMEKMGINVVKRKLGAHDNLKLTITQEGNKFTVKESSNFRNIDVVFELGVDFAYSAADGTELTGTWTMEGNKLVGKFKRVDNGKELIAVREISGNELIQTYTYEGVEAKRIFKKE
2. 47S1, L72A (protein, UniProt P02693 2-132, looked up, variant F47S L72A, acrylodan label) Fatty acid-binding protein, …: AFDGTWKVDRNENYEKFMEKMGINVVKRKLGAHDNLKLTITQEGNKSTVKESSNFRNIDVVFELGVDFAYSAADGTELTGTWTMEGNKLVGKFKRVDNGKELIAVREISGNELIQTYTYEGVEAKRIFKKE
3. 47C3, L72A (protein, UniProt P02693 2-132, looked up, variant F47C L72A, acrylodan label) Fatty acid-binding protein, …: AFDGTWKVDRNENYEKFMEKMGINVVKRKLGAHDNLKLTITQEGNKCTVKESSNFRNIDVVFELGVDFAYSAADGTELTGTWTMEGNKLVGKFKRVDNGKELIAVREISGNELIQTYTYEGVEAKRIFKKE

Given back:
0.82
0.61
0.32
